assay system: P450 2B4 L437A (Oryctolagus cuniculus, UniProt P00178, L437A)
Sequence (P00178 with tags, fused parts or gaps L437A limits assumed): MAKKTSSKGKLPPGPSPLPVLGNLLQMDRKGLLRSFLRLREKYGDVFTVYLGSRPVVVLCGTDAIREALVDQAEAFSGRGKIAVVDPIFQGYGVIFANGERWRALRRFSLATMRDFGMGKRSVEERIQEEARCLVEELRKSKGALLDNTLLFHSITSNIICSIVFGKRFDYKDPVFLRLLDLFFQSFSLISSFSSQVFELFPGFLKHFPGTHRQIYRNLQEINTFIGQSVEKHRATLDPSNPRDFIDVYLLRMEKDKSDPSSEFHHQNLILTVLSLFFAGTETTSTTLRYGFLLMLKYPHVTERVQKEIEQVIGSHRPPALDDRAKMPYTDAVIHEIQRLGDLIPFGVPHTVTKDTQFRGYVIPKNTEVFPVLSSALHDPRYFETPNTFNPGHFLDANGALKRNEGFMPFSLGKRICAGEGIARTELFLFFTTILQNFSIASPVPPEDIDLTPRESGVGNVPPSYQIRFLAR
assay name: Inhibition of 7-EFC O-deethylation by imidazole inhibitors
Format: biochemical, rabbit (Oryctolagus cuniculus)
experimental parameters: rabbit, pH 7.4, probe 7-EFC (50 μM), O-deethylation
property: IC50 at 10 min (nM)
Please respond with the number in nM and leave the unit unwritten.

-- ask What value of IC50 at 10 min has been reported for the following molecule? c1ccc(-c2ccc(C(c3ccccc3)n3ccnc3)cc2)cc1 (stereo not shown)
-- reply 50
